# testSummary: recombinant barcode read abundance after kanamycin selection (control-corrected) (log10(CPM+1)); higher = more efficient recombination; sequences stand for … in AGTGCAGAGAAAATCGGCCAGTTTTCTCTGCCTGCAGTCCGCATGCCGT…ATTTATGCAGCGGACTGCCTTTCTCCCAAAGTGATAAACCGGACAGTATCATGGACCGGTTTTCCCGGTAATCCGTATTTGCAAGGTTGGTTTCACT; site = the 11-nt target
Threshold check on recombinant barcode read abundance (log10): at or above 0.1 gives Y, strictly below gives N.

GGGAGCCTTTGGGTTCTAACCTGTTGCTGAG [GGGAGCCCTCA_LTGcore_TT_RTGcore_CT] (site GGGAGCCCTCA) (LTG core: TT, RTG core: CT) :: Y
ATGTCCCCTTGGGTTCTAACCTGTTGCTCTT [ATGTCCCCTGA_LTGcore_CT_RTGcore_AA] (site ATGTCCCCTGA) (LTG core: CT, RTG core: AA) :: N
CATATTACGTGGGTTCTAACCTGTTGCCTAG [CATATTACTAG_LTGcore_CG_RTGcore_CT] (site CATATTACTAG) (LTG core: CG, RTG core: CT) :: N

Below: the item to evaluate.
Input line: Please tell me: is the sequence ACGGGACCTTGGGTTCTAACCTGTTGCAGAT [ACGGGACCTCT_LTGcore_CT_RTGcore_AT] (site ACGGGACCTCT) (LTG core: CT, RTG core: AT) at or over 0.1 in terms of recombinant barcode read abundance (log10)?
Output line: Y
